measured.target: SMYD3 in complex with active site-specific tight-binding inhibitor EPZ031686 (Homo sapiens, UniProt Q9H7B4)
Construct: Full length recombinant SMYD3 was produced as previously reported; made in house; host or cells: E. coli BL21(DE3), in some cases Rosetta 2
Sequence (Q9H7B4 1-428): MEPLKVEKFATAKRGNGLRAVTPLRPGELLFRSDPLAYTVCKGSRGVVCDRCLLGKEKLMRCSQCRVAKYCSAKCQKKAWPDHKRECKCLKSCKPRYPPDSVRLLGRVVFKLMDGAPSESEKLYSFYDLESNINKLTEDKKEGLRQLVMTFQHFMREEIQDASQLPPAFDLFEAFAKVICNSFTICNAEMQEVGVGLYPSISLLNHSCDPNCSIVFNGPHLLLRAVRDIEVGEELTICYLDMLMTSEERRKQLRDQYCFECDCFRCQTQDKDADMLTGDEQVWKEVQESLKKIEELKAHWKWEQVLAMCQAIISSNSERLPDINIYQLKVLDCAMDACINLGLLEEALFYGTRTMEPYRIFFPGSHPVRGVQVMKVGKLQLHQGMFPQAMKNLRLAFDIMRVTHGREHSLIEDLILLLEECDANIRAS
protocol.summary: GCI biosensor kinetic screening, active site blocked SMYD3 surface
condition.details: LE = −RT ln(KD)/n, blocked SMYD3 surface
reported.property: LE (ligand efficiency)

compound | reported.property | result
COc1ccc(-n2ncc(C(=O)O)c2C)cc1 [FL01833] | LE (ligand efficiency) | 0.31 (kcal^-1 mol^-1)/HA
O=C(O)C(=O)c1ccccc1 [FL08619] | LE (ligand efficiency) | 0.55 (kcal^-1 mol^-1)/HA
Oc1ccc2ccncc2c1 [FL01657] | LE (ligand efficiency) | 0.53 (kcal^-1 mol^-1)/HA
Cn1cnc(S(N)(=O)=O)c1 [FL06268] | LE (ligand efficiency) | 0.63 (kcal^-1 mol^-1)/HA
Nc1ccnc(-c2cccnc2)n1 [FL08779] | LE (ligand efficiency) | 0.48 (kcal^-1 mol^-1)/HA
CC(C)(C)OC(=O)NC1CCC(CC(=O)O)CC1 (stereo not shown) [FL08758] | LE (ligand efficiency) | 0.32 (kcal^-1 mol^-1)/HA
O=S(=O)(c1ccccc1)C1CCNC1 (stereo not shown) [FL08644] | LE (ligand efficiency) | 0.51 (kcal^-1 mol^-1)/HA
COc1ccc(Br)cc1N [FL01938] | LE (ligand efficiency) | 0.53 (kcal^-1 mol^-1)/HA

Consider the following items and state reported LE (ligand efficiency) for each.
1. CC(C)c1nsc(N)n1 [FL01791]
2. O=C(O)c1cc(Br)c(O)c(Br)c1 [FL01775]

Solution:
1. 0.67 (kcal^-1 mol^-1)/HA
2. 0.48 (kcal^-1 mol^-1)/HA
